- Tested on: S. lividans pCAO200
- method.description: Sulfonylurea metabolism by washed cell suspension (Examples 6-9)
- Type: in vitro ADME, Streptomyces lividans
- study.conditions: substrate 10006; 2 h
// values below are reported concentration in supernatant
Provide the reading as a plain figure in µM.

Record excerpt, results attached:
compound.structure.string	concentration in supernatant [µM]
COC(=O)c1ccccc1S(=O)(=O)NC(=O)Nc1nc(C)nc(O)n1	4
COc1nc(C)nc(=NC(=O)NS(=O)(=O)c2ccccc2C(=O)O)[nH]1	0
COC(=O)c1ccccc1S(=O)(=O)NC(=O)Nc1nc(CO)nc(OC)n1	0

Field: next compound
Entry "COC(=O)c1ccccc1S(=O)(=O)NC(=O)Nc1nc(C)nc(OC)n1" has what concentration in supernatant? 381

###

- System: S. lividans pCAO200SU1-FeS-B#9
- method.description: Sulfonylurea metabolism by washed cell suspension (Examples 6-9)
- Assay type: in vitro ADME, Streptomyces lividans
- study.conditions: substrate 10006; 2 h
- Description: Herbicides and their metabolites are measured by HPLC as described by Romesser et al., BBRC 140: 650-659 (1986), herein incorporated by reference, except that 0.1% H3 PO4 is used in both solvents. Chromatographic identity and quantitation of the herbicides and their resulting metabolites is determined by comparing them chromatographically with authentic standard compounds. Identity of the resulting metabolites is also confirmed by UV spectroscopy. […]
Quick reference for concentration in supernatant among some compounds
Quick note: give the figure in µM, leave out the unit.

Look over these answered cases.
compound.structure.string	assayed.system	unit.string	concentration in supernatant
COC(=O)c1ccccc1S(=O)(=O)NC(=O)Nc1nc(CO)nc(OC)n1	S. lividans pCAO200SU1-FeS-B#9	µM	15
COC(=O)c1ccccc1S(=O)(=O)NC(=O)Nc1nc(C)nc(OC)n1	S. lividans pCAO200SU1-FeS-B#9	µM	326
COC(=O)c1ccccc1S(=O)(=O)NC(=O)Nc1nc(C)nc(O)n1	S. lividans pCAO200SU1-FeS-B#9	µM	12

Attention now turns to another entry.
Return concentration in supernatant measured with S. lividans pCAO200SU1-FeS-B#9 given this compound: "COc1nc(C)nc(=NC(=O)NS(=O)(=O)c2ccccc2C(=O)O)[nH]1" 18

###

- Tested on: S. griseolus ATCC 11796, 10001 added
- method.description: Percent conversion of herbicides by cultures (Example 16)
- Assay type: in vitro ADME, Streptomyces griseolus
- study.conditions: 3.0 mg herbicide and 3.0 mg 10001 in 25 ml broth; 24 hours
- Procedure: Separate cultures (50 ml) inoculated with S. lividans C37, S. lividans transformed with pCAO200SU1-FeS-B#9, S. griseolus ATCC11796, S. griseolus PH2003 transformed with pIJ425, or S. ariseolus PH2003 transformed with pCS325 were cultured in sporulation broth for 18 hours at 30° C. with shaking. […] Each culture was reincubated for 24 hours, then an aliquot of the medium was withdrawn and analyzed by HPLC. The percent conversion of herbicide was determined.
assay.readout: Percent Conversion (%)
Respond numerically; units are % and should not be typed.

Worked set:
compound	unit.string	readout.number
Cc1ccc(NC(=O)N(C)C)cc1Cl [compound 10019, 3-(3-chloro-p-tolyl)-1,1-dimethylurea]	%	80
CN(C)c1nc(=O)n(C2CCCCC2)c(=O)n1C [compound 10017]	%	35
N#Cc1cc(Br)c(O)c(Br)c1 [compound 10023, 3,5-dibromo-4-hydroxybenzonitrile]	%	0

Now let's try a different one.
Give the measured Percent Conversion of CCOC(=O)c1ccccc1S(=O)(=O)NC(=O)Nc1nc(Cl)cc(OC)n1 [compound 10001] . 100

###

- System: S. lividans C37
- method.description: Percent conversion of herbicides by cultures (Example 16)
- Type: in vitro ADME, Streptomyces lividans
- study.conditions: 3.0 mg herbicide in 25 ml broth; 24 hours
assay.readout: Percent Conversion
For clarity, give the value followed by its unit.

Item "CN(C)c1nc(=O)n(C2CCCCC2)c(=O)n1C" with S. lividans C37 - Percent Conversion? 19%

Then this compound: "CCOC(=O)c1ccccc1S(=O)(=O)NC(=O)Nc1nc(Cl)cc(OC)n1" 0%

Would you kindly repeat that for N#Cc1cc(Br)c(O)c(Br)c1 [compound 10023, 3,5-dibromo-4-hydroxybenzonitrile] ? 0%

Entry to check: "CCNc1nc(Cl)nc(NC(C)(C)C#N)n1" 0%

Try "Cc1ccc(NC(=O)N(C)C)cc1Cl" next. 0%

Now consider "CSc1nnc(C(C)(C)C)c(=O)n1N" and answer again. 0%

###

- System: S. lividans pCAO200
- method.description: Sulfonylurea metabolism by washed cell suspension (Examples 6-9)
- Type: in vitro ADME, Streptomyces lividans
- study.conditions: substrate 10006; 4 h
Quick reference: concentration in supernatant of the listed items.
Report as a plain number; the unit µM is understood.

compound.structure.string	assayed.system	assay.readout	unit.string	readout.number
COC(=O)c1ccccc1S(=O)(=O)NC(=O)Nc1nc(C)nc(O)n1	S. lividans pCAO200	concentration in supernatant	µM	1
COC(=O)c1ccccc1S(=O)(=O)NC(=O)Nc1nc(CO)nc(OC)n1	S. lividans pCAO200	concentration in supernatant	µM	0
COc1nc(C)nc(=NC(=O)NS(=O)(=O)c2ccccc2C(=O)O)[nH]1	S. lividans pCAO200	concentration in supernatant	µM	0

--- query ---
Param readout= concentration in supernatant; system= S. lividans pCAO200; entry= "COC(=O)c1ccccc1S(=O)(=O)NC(=O)Nc1nc(C)nc(OC)n1" ; returns value. 377

###

- Tested on: S. lividans pCAO200SU1#12
- method.description: Sulfonylurea metabolism by washed cell suspension (Examples 6-9)
- Format: in vitro ADME, Streptomyces lividans
- study.conditions: substrate 10006; 6 h
Consider the following compounds and their measured concentration in supernatant readings.
Note: state the figure and append the unit.

Fill in the recorded concentration in supernatant for this compound, with S. lividans pCAO200SU1#12 as test system: "COc1nc(C)nc(=NC(=O)NS(=O)(=O)c2ccccc2C(=O)O)[nH]1" 1000 nM

###

Quick list: concentration in supernatant per entry.
- Tested on: S. lividans pCAO200SU1-FeS-B#9
- method.description: Sulfonylurea metabolism by washed cell suspension (Examples 6-9)
- Format: in vitro ADME, Streptomyces lividans
- study.conditions: substrate 10006; 6 h
Respond with the bare value in µM.

Would you mind telling me what concentration in supernatant value was observed for "COC(=O)c1ccccc1S(=O)(=O)NC(=O)Nc1nc(CO)nc(OC)n1" ? 49

Note, next up: "COc1nc(C)nc(=NC(=O)NS(=O)(=O)c2ccccc2C(=O)O)[nH]1" 55

What do you get for "COC(=O)c1ccccc1S(=O)(=O)NC(=O)Nc1nc(C)nc(OC)n1" ? 232

And what about the molecule "COC(=O)c1ccccc1S(=O)(=O)NC(=O)Nc1nc(C)nc(O)n1" ? 30

###

- System: S. griseolus PH2003 pCS325
- method.description: Percent conversion of herbicides by cultures (Example 16)
- Type: in vitro ADME, Streptomyces griseolus
- study.conditions: 3.0 mg herbicide in 25 ml broth; 24 hours
assay.readout: Percent Conversion (%)
Numeric answer only, unit % assumed.

Recorded Percent Conversion, per entry:
molecule	readout.number
CN(C)c1nc(=O)n(C2CCCCC2)c(=O)n1C [compound 10017]	98
C[n+]1cccnc1[O-] [compound 10022, 1-methyl-2(1H)-pyrimidinone]	96
CCOC(=O)c1ccccc1S(=O)(=O)NC(=O)Nc1nc(Cl)cc(OC)n1 [compound 10001]	100

Lab note: need Percent Conversion for COC(=O)C1Cc2c(c(Cl)cc(F)c2N2C(=O)C3=C(CCCC3)C2=O)O1 (stereo not shown) [compound 10020] on S. griseolus PH2003 pCS325, anyone have it? 89

###

- System: S. lividans pCAO200SU1#12
- method.description: Sulfonylurea metabolism by washed cell suspension (Examples 6-9)
- Format: in vitro ADME, Streptomyces lividans
- study.conditions: substrate 10006; 6 h
assay.readout: concentration in supernatant (nM)
Respond with the bare value in nM.

Completed entries (count: 2):
molecule	unit.string	readout.number
COC(=O)c1ccccc1S(=O)(=O)NC(=O)Nc1nc(C)nc(OC)n1 [compound 10006]	nM	386000
COC(=O)c1ccccc1S(=O)(=O)NC(=O)Nc1nc(C)nc(O)n1 [compound 10007]	nM	2000

Let us examine a further case.
Reported concentration in supernatant for S. lividans pCAO200SU1#12, given COC(=O)c1ccccc1S(=O)(=O)NC(=O)Nc1nc(CO)nc(OC)n1 [compound 10009] ? 1000

Each recorded value in this set is attributed to patent US5349127A.
